Test System: EP4 (Homo sapiens, UniProt P35408)
Sequence (P35408 whole entry): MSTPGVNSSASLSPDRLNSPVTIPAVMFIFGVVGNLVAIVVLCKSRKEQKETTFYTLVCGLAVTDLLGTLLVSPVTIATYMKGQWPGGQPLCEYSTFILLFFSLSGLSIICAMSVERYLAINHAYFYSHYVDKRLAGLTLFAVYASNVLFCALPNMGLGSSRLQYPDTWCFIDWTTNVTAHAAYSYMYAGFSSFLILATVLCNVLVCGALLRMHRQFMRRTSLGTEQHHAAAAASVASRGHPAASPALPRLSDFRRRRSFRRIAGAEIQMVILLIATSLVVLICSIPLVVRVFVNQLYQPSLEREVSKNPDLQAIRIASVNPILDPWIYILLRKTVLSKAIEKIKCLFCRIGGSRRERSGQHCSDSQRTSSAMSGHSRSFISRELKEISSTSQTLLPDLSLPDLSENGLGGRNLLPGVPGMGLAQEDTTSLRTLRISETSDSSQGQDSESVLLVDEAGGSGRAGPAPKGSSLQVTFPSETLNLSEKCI
Method: EP4 flipr functional assay
Condition Context: read-out: EP4 data filpr EC50
Text: U.S. patent application Ser. No. 11/553,143, filed on Oct. 26, 2006, now issued as U.S. Pat. No. 7,427,685 incorporated by reference herein, describes the methods used to obtain the in vitro data in the tables below.
Endpoint: EC50 (µM)
Just the number in µM, nothing appended.

Query (molecule): O=C(O)c1ccc(CCC[C@@H]2[C@@H](CNc3cc(Cl)cc(Cl)c3)[C@H](O)C[C@H]2Cl)s1 [drawing 6] ; field requested: EC50
5.58

====

Test System: hDP (Homo sapiens)
Sequence (Q13258 1-359): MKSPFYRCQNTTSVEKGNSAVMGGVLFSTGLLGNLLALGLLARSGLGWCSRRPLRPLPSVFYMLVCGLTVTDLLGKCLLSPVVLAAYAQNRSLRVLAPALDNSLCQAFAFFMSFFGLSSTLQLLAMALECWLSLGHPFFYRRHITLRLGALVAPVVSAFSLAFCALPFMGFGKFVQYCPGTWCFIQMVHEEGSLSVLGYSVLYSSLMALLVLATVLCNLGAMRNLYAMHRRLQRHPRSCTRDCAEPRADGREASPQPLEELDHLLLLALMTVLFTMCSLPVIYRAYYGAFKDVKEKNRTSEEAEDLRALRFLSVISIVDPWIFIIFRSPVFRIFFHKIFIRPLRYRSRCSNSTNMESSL
Method: Other receptors functional EC50: hDP
Endpoint: pEC50
# log scale: pEC50 equals minus log10 of the concentration in mol/L

Recorded pEC50 for O=C(O)c1ccc(CCC[C@@H]2[C@@H](CSc3cc(F)cc(F)c3)[C@H](O)C[C@H]2Cl)s1 , please?
5.01

====

Test System: EP4 (Homo sapiens, UniProt P35408)
Endpoint: pKi
Please keep in mind that pKi is minus log10 of the molar concentration; only the number is needed.

So what's the measured pKi for this one? O=C(O)c1ccc(CCC[C@@H]2[C@@H](CNc3cc(Cl)cc(Cl)c3)[C@H](O)C[C@H]2Cl)s1 [drawing 6]
6.17

====

Test System: hTP (Homo sapiens, UniProt P21731)
Sequence (P21731 whole entry): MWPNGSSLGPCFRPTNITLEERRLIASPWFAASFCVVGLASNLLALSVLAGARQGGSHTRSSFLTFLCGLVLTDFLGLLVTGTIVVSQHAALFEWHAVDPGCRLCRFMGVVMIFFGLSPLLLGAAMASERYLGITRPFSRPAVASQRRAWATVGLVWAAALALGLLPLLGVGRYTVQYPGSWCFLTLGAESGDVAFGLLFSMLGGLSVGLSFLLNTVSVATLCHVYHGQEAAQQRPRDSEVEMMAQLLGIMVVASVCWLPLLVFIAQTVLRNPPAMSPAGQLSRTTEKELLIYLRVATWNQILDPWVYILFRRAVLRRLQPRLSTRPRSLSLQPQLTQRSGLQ
Method: Other receptors functional EC50: hTP
Assay type: cell-based
Endpoint: EC50 (µM)
Value expressed in µM; do not type the unit.

Fill in the blank: the reported EC50 of O=C(O)c1ccc(CCC[C@@H]2[C@@H](CSc3cc(F)cc(F)c3)[C@H](O)C[C@H]2Cl)s1 is ____.
5.31

====

Test System: UniProtKB P43116
Sequence (P43116 whole entry): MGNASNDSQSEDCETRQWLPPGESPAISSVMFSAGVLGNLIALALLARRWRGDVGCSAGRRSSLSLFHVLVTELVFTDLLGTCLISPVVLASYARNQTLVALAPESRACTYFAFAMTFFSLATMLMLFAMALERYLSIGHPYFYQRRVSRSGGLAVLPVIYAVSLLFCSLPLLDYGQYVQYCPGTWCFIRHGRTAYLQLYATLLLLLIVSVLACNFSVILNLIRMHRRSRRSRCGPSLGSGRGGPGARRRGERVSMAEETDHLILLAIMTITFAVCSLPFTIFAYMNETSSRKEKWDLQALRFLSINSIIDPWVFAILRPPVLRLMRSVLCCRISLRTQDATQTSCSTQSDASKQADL
Method: EP2 flipr functional assay
Format: cell-based
Endpoint: EC50
In your response, the unit should come after the numeric value.

Find EC50 (UniProtKB P43116) for the entry O=C(O)c1ccc(CCC[C@@H]2[C@@H](CNc3cc(Cl)cc(Cl)c3)[C@H](O)C[C@H]2Cl)s1 [drawing 6]
20 nM
